Where these numbers come from: ChEMBL document CHEMBL1145447

- target.entity: Opioid receptors; mu & kappa (Homo sapiens) (UniProt P41145+P35372)
- Sequence (P35372 whole entry, looked up): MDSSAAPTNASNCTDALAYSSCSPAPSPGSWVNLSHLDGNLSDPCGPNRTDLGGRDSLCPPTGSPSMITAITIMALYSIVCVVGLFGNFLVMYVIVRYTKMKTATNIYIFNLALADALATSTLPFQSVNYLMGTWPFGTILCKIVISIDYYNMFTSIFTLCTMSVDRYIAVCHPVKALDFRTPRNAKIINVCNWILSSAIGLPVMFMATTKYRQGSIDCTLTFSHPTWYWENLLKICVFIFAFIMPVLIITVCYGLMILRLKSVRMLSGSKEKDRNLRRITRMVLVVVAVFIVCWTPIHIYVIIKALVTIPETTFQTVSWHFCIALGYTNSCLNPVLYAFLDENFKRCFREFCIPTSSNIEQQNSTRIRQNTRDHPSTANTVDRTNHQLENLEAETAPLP
- Sequence (P41145 whole entry, looked up): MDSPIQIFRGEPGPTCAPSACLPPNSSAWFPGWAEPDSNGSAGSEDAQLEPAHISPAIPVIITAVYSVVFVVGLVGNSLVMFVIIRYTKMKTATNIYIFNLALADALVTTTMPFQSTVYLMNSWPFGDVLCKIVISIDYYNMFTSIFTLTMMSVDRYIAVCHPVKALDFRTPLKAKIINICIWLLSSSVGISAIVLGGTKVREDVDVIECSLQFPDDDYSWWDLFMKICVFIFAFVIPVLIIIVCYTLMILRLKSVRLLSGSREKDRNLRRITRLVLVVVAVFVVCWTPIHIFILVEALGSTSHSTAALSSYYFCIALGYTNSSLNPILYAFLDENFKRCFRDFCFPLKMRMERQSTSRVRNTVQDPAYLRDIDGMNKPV
- protocol.notes: Selectivity for kappa opioid receptor over mu opioid receptor
- Assay type: protein assay
Measured Ratio Ki of individual entries
observed.property: Ratio Ki

compound=COC(=O)[C@@H]1C[C@H](OC(C)=O)C(=O)[C@H]2[C@@]1(C)CC[C@H]1C(=O)O[C@H]([C@@H]3C[C@@H](OC)O[C@H]3OC)C[C@]21C observed_property="Ratio Ki" value_relation_sign=> recorded_measurement=80
compound=COC(=O)[C@@H]1C[C@H](OC(C)=O)C(=O)[C@H]2[C@@]1(C)CC[C@H]1C(=O)O[C@H](C3=C[C@@H](OC)O[C@@H]3OC)C[C@]21C observed_property="Ratio Ki" value_relation_sign== recorded_measurement=8
compound=COC(=O)[C@@H]1C[C@H](OC(C)=O)C(=O)[C@H]2[C@@]1(C)CC[C@H]1C(=O)O[C@H]([C@]3(O)[C@H](OC)O[C@H](OC)[C@H]3O)C[C@]21C observed_property="Ratio Ki" value_relation_sign=> recorded_measurement=26
compound=COC(=O)[C@@H]1C[C@H](OC(C)=O)C(=O)[C@H]2[C@@]1(C)CC[C@H]1C(=O)O[C@H](C3=NCCO3)C[C@]21C observed_property="Ratio Ki" value_relation_sign=> recorded_measurement=30
compound=COC(=O)[C@@H]1C[C@H](OC(C)=O)C(=O)[C@H]2[C@@]1(C)CC[C@H]1C(=O)O[C@H](C3=C[C@@H](OC)O[C@H]3OC)C[C@]21C observed_property="Ratio Ki" value_relation_sign== recorded_measurement=21
compound="COC(=O)[C@@H]1C[C@H](OC(C)=O)C(=O)[C@H]2[C@@]1(C)CC[C@H]1C(=O)O[C@H](C3CC(OC)OC3OC)C[C@]21C (some centres undefined)" observed_property="Ratio Ki" value_relation_sign== recorded_measurement=120
compound=COC(=O)[C@@H]1C[C@H](OC(C)=O)C(=O)[C@@H]2[C@@]3(C)C[C@@H](c4nc(C)no4)OC(=O)[C@H]3CC[C@]21C observed_property="Ratio Ki" value_relation_sign=> recorded_measurement=10
compound=COC(=O)[C@@H]1C[C@H](OC(C)=O)C(=O)[C@@H]2[C@@]3(C)C[C@@H]([C@]4(O)[C@@H](OC)O[C@@H](OC)[C@H]4O)CC(=O)[C@@H]3CC[C@]21C observed_property="Ratio Ki" value_relation_sign== recorded_measurement=1.4
compound="COC(=O)[C@@H]1C[C@H](OC(C)=O)C(=O)[C@H]2[C@@]1(C)CC[C@H]1C(=O)O[C@H](C3=CC(OC)OC3OC)C[C@]21C (some centres undefined)" observed_property="Ratio Ki" value_relation_sign=> recorded_measurement=20

###

Below are compounds with their Ki as measured on Kappa-type opioid receptor (Homo sapiens).
Sequence (P41145 whole entry): as the sequence (P41145 whole entry, looked up) above
observed.property: Ki (nM)

compound=COC(=O)[C@@H]1C[C@H](OC(C)=O)C(=O)[C@H]2[C@@]1(C)CC[C@H]1C(=O)O[C@H](C3=NCCO3)C[C@]21C unit_abbrev=nM value_relation_sign== recorded_measurement=300
compound=COC(=O)[C@@H]1C[C@H](OC(C)=O)C(=O)[C@H]2[C@@]1(C)CC[C@H]1C(=O)O[C@H](C3=C[C@@H](OC)O[C@H]3OC)C[C@]21C unit_abbrev=nM value_relation_sign== recorded_measurement=180
compound=COC(=O)[C@@H]1C[C@H](OC(C)=O)C(=O)[C@H]2[C@@]1(C)CC[C@H]1C(=O)O[C@H]([C@@H]3CCOC3)C[C@]21C unit_abbrev=nM value_relation_sign== recorded_measurement=3.7
compound=COC(=O)[C@@H]1C[C@H](OC(C)=O)C(=O)[C@H]2[C@@]1(C)CC[C@H]1C(=O)O[C@H]([C@@H]3C[C@@H](OC)O[C@H]3OC)C[C@]21C unit_abbrev=nM value_relation_sign== recorded_measurement=125
compound=COC(=O)[C@@H]1C[C@H](OC(C)=O)C(=O)[C@H]2[C@@]1(C)CC[C@H]1C(=O)O[C@H]([C@]3(O)[C@H](OC)O[C@H](OC)[C@H]3O)C[C@]21C unit_abbrev=nM value_relation_sign== recorded_measurement=390
compound=COC(=O)[C@@H]1C[C@H](OC(C)=O)C(=O)[C@@H]2[C@@]3(C)C[C@@H]([C@]4(O)[C@@H](OC)O[C@@H](OC)[C@H]4O)CC(=O)[C@@H]3CC[C@]21C unit_abbrev=nM value_relation_sign== recorded_measurement=7020
compound="COC(=O)[C@@H]1C[C@H](OC(C)=O)C(=O)[C@H]2[C@@]1(C)CC[C@H]1C(=O)OC([C@]3(O)[C@@H](OC)O[C@@H](OC)[C@H]3OC(C)=O)C[C@]21C (some centres not stated)" unit_abbrev=nM value_relation_sign=> recorded_measurement=10000
compound="COC(=O)[C@@H]1C[C@H](OC(C)=O)C(=O)[C@@H]2[C@@](C)(CCC3CCOC3)[C@H](C(=O)O)CC[C@]21C (some centres not stated)" unit_abbrev=nM value_relation_sign== recorded_measurement=910
compound=COC(=O)[C@@H]1C[C@H](OC(C)=O)C(=O)[C@@H]2[C@@]3(C)C[C@@H](c4nc(C)no4)OC(=O)[C@H]3CC[C@]21C unit_abbrev=nM value_relation_sign== recorded_measurement=990
compound="COC(=O)[C@@H]1C[C@H](OC(C)=O)C(=O)[C@H]2[C@@]1(C)CC[C@H]1C(=O)O[C@H](C3CCOC3)C[C@]21C (some centres not stated)" unit_abbrev=nM value_relation_sign== recorded_measurement=14
compound="COC(=O)[C@@H]1C[C@H](OC(C)=O)C(=O)[C@H]2[C@@]1(C)CC[C@H]1C(=O)OC([C@]3(O)[C@H](OC)O[C@H](OC)[C@H]3OC(C)=O)C[C@]21C (some centres not stated)" unit_abbrev=nM value_relation_sign=> recorded_measurement=10000
compound=COC(=O)[C@@H]1C[C@H](OC(C)=O)C(=O)[C@H]2[C@@]1(C)CC[C@H]1C(=O)O[C@H](c3nc(C)no3)C[C@]21C unit_abbrev=nM value_relation_sign== recorded_measurement=56
